Values from paper PMC10397247

system name: T1, O7-bS
T1 chain: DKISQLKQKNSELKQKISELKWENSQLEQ
assay notes: two-hybrid library CCNG1;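 further: natural log of median RNA to DNA barcode read ratio; higher means stronger binding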
reported property: interaction score
# respond with the number and nothing more

Asked: Find the recorded interaction score belonging to DEISQLEQENSELEQKISELKWENSQLEQ [O15-bS] and report it.
Given back: -0.978

Asked: Find the recorded interaction score belonging to DENSQLEQEISELEQENSELEWKISQLKQ [O14-bS] and report it.
Given back: -0.1

Asked: Find the recorded interaction score belonging to DKNSQLKQENSELEQKISELKWKISQLKQ [O10-bS] and report it.
Given back: -0.783

Asked: Find the recorded interaction score belonging to DEISQLEQKISELKQENSELEWENSQLEQ [O3-bS] and report it.
Given back: -0.235

Asked: Find the recorded interaction score belonging to DEISQLEQKISELKQKNSELKWKNSQLKQ [O12-bS] and report it.
Given back: -0.726

Asked: Find the recorded interaction score belonging to DKISQLKQEISELEQENSELEWENSQLEQ [O11-bS] and report it.
Given back: -1.17

Asked: Find the recorded interaction score belonging to DENSQLEQKNSELKQKISELKWKISQLKQ [O2-bS] and report it.
Given back: -0.412
